The reported numbers originate from patent US10280170B2.

measured-metric: melting point (°C)
Numbers only, in °C.

Please review the entries below; each comes with its answer.
- compound: "COCCOc1cc(COc2ccc(-c3c(-c4ccncc4)nn4c3C(=O)NCC4)cc2)ccc1C(C)C [Compound 90]"
  measured-metric: "melting point"
  reading: 209
- compound: "COc1ccc(COc2ccc(-c3c(-c4ccncn4)nn4c3C(=O)NCC4)cc2)cc1 [Compound 157]"
  measured-metric: "melting point"
  reading: 264
- compound: "CC(C)c1ccc(COc2ccc(-c3c(-c4ccncc4)nn4c3C(=O)N(CC3(C)COC3)CC4)cc2)cc1 [Compound 54]"
  measured-metric: "melting point"
  reading: 204
- compound: "COC(=O)c1ccc(COc2ccc(-c3c(-c4ccncc4)nn4c3C(=O)NCC4)cc2)cc1 [Compound 9a]"
  measured-metric: "melting point"
  reading: 254
- compound: "CC(C)c1ccc(COc2ccc(-c3c(-c4ccnc5[nH]ccc45)nn4c3C(=O)NCC4)cc2)cc1 [Compound 155]"
  measured-metric: "melting point"
  reading: 266

// each listed compound needs a value for melting point
1. CC(C)(C#N)c1ccc(COc2ccc(-c3c(-c4ccncc4)nn4c3C(=O)N(CCO)CC4)cc2)cc1 [Compound 122]
2. COc1ccc(COc2ccc(-c3c(-c4ccncc4)nn4c3C(=O)NCC4)cc2)cc1 [Compound 112]
3. CC(C)c1ccc(C2COc3cc(-c4c(-c5ccncc5)nn5c4C(=O)NCC5)ccc3O2)cc1 (stereo not drawn) [Compound 201]
4. Cc1ccc(COc2ccc(-c3c(-c4ccncc4)nn4c3C(=O)NCC4)cc2)cc1 [Compound 105]
5. CC(C)c1ccc(COc2ccc(-c3c(-c4ccncc4)nn4c3CNCC4)cc2)cc1 [Compound 173]
6. CC(C)c1ccc(COc2ncc(-c3c(-c4ccncc4)nn4c3C(=O)NCC4)cn2)cc1 [Compound 75]

Reply text:
1. 199
2. 260
3. 290
4. 259
5. 194
6. 126

// each listed compound needs a value for melting point
1. O=C1NCCn2nc(-c3ccncc3)c(-c3ccc(OCc4ccc(C5CC5)nc4)cc3)c21 [Compound 3]
2. O=C1c2c(-c3ccc(OCc4ccc(C5CC5)c(F)c4)cc3)c(-c3ccncc3)nn2CCN1CCO [Compound 137]
3. COc1cc(-c2c(-c3ccncc3)nn3c2C(=O)N(C)CC3)ccc1OCc1ccc(C(C)C)cc1 [Compound 33]
4. CC(C)c1ccc(COc2ccc(-c3c(-c4cc[n+]([O-])cc4)nn4c3C(=O)NCC4)cc2)cc1 [Compound 170]
5. CC(C)c1ccc(COc2ccc(-c3c(-c4ncnc5[nH]ccc45)nn4c3C(=O)NCC4)cc2)cc1 [Compound 222]
6. CC(C)c1ccc(COc2ccc(-c3c(-c4ccncc4)nn4c3C(=O)N(CCO)CC4)cc2F)cc1 [Compound 19]
7. CC(C)c1ccc(COc2ccc(-c3c(-c4ccncc4)nn4c3CN(CCO)CC4)cc2)cc1 [Compound 176]
8. CC(C)c1ccc(COc2ccc(-c3c(-c4ccncc4)nn4c3C(=O)N(CC(O)CO)CC4)cc2)cc1 (stereo not drawn) [Compound 44]

Reply text:
1. 276
2. 185
3. 151
4. 227
5. 238
6. 172
7. 150
8. 192

----------
target: Ba/F3 cells containing Ros1 wild-type protein (Homo sapiens, UniProt P08922, cells depend on it, form not given)
Construct: The background only speaks of 'a number of different unrelated proteins' and names SLC34A2-ROS1 for HCC78 cells
Sequence (P08922 whole entry, stated change not applied): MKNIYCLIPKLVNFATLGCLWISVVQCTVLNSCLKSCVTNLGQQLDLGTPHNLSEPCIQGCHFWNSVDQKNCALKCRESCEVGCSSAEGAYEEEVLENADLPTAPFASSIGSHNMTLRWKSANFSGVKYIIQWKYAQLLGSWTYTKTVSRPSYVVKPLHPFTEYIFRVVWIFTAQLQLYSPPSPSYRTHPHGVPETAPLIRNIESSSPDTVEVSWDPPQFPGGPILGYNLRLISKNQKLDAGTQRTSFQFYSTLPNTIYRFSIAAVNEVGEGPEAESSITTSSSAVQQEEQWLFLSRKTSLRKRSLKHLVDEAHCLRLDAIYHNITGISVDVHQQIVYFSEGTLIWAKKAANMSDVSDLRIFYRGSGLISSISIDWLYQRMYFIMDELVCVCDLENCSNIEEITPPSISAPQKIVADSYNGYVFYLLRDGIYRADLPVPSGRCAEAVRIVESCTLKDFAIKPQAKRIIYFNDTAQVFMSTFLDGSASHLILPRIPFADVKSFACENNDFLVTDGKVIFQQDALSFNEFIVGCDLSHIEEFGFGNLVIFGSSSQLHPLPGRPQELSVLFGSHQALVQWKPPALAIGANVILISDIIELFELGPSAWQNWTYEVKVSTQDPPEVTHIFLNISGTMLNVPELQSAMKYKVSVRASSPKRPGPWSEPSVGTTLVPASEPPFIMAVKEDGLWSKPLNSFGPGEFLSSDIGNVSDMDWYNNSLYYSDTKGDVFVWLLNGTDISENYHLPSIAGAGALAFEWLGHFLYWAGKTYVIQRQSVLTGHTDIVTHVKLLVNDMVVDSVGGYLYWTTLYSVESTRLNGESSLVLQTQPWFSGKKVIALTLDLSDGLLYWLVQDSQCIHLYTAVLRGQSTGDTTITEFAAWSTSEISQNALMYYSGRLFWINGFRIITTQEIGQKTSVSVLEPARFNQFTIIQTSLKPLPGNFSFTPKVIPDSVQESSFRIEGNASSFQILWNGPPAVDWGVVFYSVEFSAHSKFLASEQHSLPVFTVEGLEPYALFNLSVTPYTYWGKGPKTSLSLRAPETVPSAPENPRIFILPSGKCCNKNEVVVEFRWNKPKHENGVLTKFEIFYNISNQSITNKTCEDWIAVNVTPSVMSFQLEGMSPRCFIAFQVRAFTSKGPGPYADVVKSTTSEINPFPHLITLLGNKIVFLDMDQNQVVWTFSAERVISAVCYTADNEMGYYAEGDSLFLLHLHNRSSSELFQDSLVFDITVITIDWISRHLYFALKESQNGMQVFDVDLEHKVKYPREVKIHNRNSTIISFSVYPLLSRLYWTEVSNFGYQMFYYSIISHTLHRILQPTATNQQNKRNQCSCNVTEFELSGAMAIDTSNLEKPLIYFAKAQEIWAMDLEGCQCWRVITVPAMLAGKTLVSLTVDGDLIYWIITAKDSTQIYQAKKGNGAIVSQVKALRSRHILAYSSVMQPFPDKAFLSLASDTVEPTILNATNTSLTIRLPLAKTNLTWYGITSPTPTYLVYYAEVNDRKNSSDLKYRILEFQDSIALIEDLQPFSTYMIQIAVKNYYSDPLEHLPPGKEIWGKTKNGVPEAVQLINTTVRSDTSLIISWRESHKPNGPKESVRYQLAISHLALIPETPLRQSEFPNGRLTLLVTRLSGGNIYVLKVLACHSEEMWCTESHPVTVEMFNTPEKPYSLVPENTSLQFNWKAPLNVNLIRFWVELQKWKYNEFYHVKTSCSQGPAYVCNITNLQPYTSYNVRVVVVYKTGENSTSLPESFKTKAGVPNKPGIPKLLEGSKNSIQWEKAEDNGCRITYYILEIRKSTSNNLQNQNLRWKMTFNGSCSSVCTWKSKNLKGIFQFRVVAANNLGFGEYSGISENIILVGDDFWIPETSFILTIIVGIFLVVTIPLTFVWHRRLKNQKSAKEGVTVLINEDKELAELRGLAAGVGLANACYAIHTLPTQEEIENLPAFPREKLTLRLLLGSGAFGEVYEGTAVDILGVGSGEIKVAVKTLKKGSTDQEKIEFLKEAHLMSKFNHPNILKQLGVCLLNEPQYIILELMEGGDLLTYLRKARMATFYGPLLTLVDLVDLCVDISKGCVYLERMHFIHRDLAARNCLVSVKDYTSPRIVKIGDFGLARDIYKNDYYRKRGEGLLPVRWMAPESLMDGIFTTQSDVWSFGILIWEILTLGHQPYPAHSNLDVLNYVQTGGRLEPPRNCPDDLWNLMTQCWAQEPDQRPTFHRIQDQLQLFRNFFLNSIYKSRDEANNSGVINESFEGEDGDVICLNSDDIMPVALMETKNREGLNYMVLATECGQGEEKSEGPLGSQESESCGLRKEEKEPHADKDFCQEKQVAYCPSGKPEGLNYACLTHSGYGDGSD
assay-procedure: Ba/F3-Ros1 cell proliferation assay, wild-type Ros1
Format: cell-based, murine
measurement-context: without IL-3
measured-metric: BaF3-ROS1-IL3 pIC50
Give bare numbers.

Please review the entries below; each comes with its answer.
- molecule: "CC(C)c1ccc(COc2ccc(-c3c(-c4ccncc4)nn4c3C(=O)N(CCS(C)(=O)=O)CC4)cc2)cc1"
  reading: 7.6
- molecule: "CC(C)c1ccc(C2CCc3cc(-c4c(-c5ccncc5)nn5c4C(=O)NCC5)ccc3O2)cc1 (stereo not shown)"
  reading: 7.1
- molecule: "CC(C)c1ccc(COc2ccc(-c3c(-c4ccncc4)nn4c3C(=O)N(CC(O)CO)CC4)c(F)c2)cc1 (stereo not shown) [Compound 23]"
  reading: 7.7

// each listed molecule needs a value for BaF3-ROS1-IL3 pIC50
1. COCCOc1cc(COc2ccc(-c3c(-c4ccncc4)nn4c3C(=O)NCC4)cc2)ccc1C(C)C
2. CC1Cn2nc(-c3ccncc3)c(-c3ccc(OCc4ccc(C5CC5)cc4)cc3)c2CN1 (stereo not shown)
3. O=C1NCCn2nc(-c3ccncc3)c(-c3ccc(OCc4ccc(C(F)(F)F)cc4)cc3)c21
4. O=C1NCCn2nc(-c3ccncc3)c(-c3ccc(OCc4cccc(C(F)(F)F)c4)cc3)c21

Reply text:
[7.2, 6.1, 7.2, 6.6]
